Target: human IDO1 (Homo sapiens, UniProt P14902)
Sequence (P14902 whole entry): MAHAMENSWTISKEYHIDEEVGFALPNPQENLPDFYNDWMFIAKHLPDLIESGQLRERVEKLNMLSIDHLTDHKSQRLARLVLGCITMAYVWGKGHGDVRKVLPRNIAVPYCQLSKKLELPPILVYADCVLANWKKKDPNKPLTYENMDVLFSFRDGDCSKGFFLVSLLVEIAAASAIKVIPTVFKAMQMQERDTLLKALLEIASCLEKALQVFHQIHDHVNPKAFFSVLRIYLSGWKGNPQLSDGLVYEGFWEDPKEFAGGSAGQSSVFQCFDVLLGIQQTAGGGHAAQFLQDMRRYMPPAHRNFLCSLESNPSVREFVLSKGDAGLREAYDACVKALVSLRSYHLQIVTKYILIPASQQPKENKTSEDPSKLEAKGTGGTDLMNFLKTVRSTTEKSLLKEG
Test: IDO inhibition assay in HEK293 cells stably expressing human IDO1 (kynurenine production, Ehrlich reagent, absorbance 490 nm)
Conditions: 20 hours incubation with compound, 500 nM reference standard = 100% inhibition, read-out: IDO1 HEK Human IC50
Counter-ions that a name gives are not always drawn.
experimental_readout: log10 of IC50 (log10 of the value in nM)
// units: nM (pre-log); metric: IC50; scale: log10

> print(dat)
                                   compound   val
1  CCCN(Cc1ccccc1)c1cc(NC(=O)Nc2ccccc2F)cc(-c2cc(C)ccc2-c2nnn[nH]2)n1 [Example 88, TFA]  2.04
2  CCCN(Cc1ccccc1)c1cc(NC(=O)Cc2ccc(C(C)C)cc2)cc(-c2ccccc2-c2nn[nH]n2)n1  1.72

In: Given `COc1cccc(Nc2cc(-c3ccccc3-c3nnn[nH]3)nc(N(Cc3ccccc3)CC(C)C)c2)c1` , state its recorded log10 of IC50.
Out: 0.85

In: Given `CCCN(Cc1ccccc1)c1cc(NC(=O)Cc2cccc3ccccc23)cc(-c2ccccc2-c2nn[nH]n2)n1` , state its recorded log10 of IC50.
Out: 1.92

In: Given `CCCN(Cc1ccccc1)c1cc(NC(=O)Nc2cc(C)on2)cc(-c2ccccc2-c2nnn[nH]2)n1` , state its recorded log10 of IC50.
Out: 2.43

In: Given `CCCN(Cc1ccccc1)c1cc(NC(=O)Nc2ccc(C)cc2)cc(-c2cc(C)ccc2-c2nnn[nH]2)n1` , state its recorded log10 of IC50.
Out: 1.66

In: Given `CCCN(Cc1ccccc1)c1cc(Nc2nc(-c3ccccc3)cs2)cc(-c2ccccc2-c2nnn[nH]2)n1` , state its recorded log10 of IC50.
Out: 2.14

----------
Target: UniProt P14902
Test: IDO inhibition assay in HEK293 cells stably expressing human IDO1 (kynurenine production, Ehrlich reagent, absorbance 490 nm)
Details: 20 hours incubation with compound, 500 nM reference standard = 100% inhibition, read-out: IDO1 HEK Human IC50
Counter-ions that a name gives are not always drawn.
experimental_readout: IC50 (nM)
Give just the number in nM; leave the unit off.

In: Item: `CCN(Cc1ccccc1)c1cc(NC(=O)Cc2ccc(C#N)cc2)cc(-c2ccccc2-c2nnn[nH]2)n1` Test system: UniProt P14902 Read-out: IC50 Value: ?
Out: 1580

In: Item: CC(C)CN(Cc1ccc(F)cc1)c1cc(Nc2nc3ccccc3s2)cc(-c2ccccc2-c2nnn[nH]2)n1 [Example 43, TFA] Test system: UniProt P14902 Read-out: IC50 Value: ?
Out: 31.2

In: Item: `CC(C)CN(Cc1ccccc1)c1cc(Nc2cccc(C(F)F)c2)cc(-c2ccccc2-c2nnn[nH]2)n1` Test system: UniProt P14902 Read-out: IC50 Value: ?
Out: 26.4

In: Item: `CCCN(Cc1ccccc1)c1cc(NC(=O)Cc2csc3ccccc23)cc(-c2ccccc2-c2nn[nH]n2)n1` Test system: UniProt P14902 Read-out: IC50 Value: ?
Out: 76.8

----------
Biological target: human IDO1 (Homo sapiens)
Assay: IDO inhibition assay in HEK293 cells stably expressing human IDO1 (kynurenine production, Ehrlich reagent, absorbance 490 nm)
Conditions: 20 hours incubation with compound, 500 nM reference standard = 100% inhibition, read-out: IDO1 HEK Human IC50
Counter-ions that a name gives are not always drawn.
experimental_readout: log10 of IC50 (log10 of the value in nM)
// units: nM (pre-log); metric: IC50; scale: log10

> print(dat)
                                   molecule  experimental.readout   val
1  CC(C)CN(Cc1ccccc1)c1cc(Nc2ccn3nccc3n2)cc(-c2ccccc2-c2nnn[nH]2)n1         log10 of IC50  2.12
2  CCCN(Cc1ccccc1)c1cc(NC(=O)Nc2ccc(C)cc2)cc(-c2ccccc2-c2nsc(=O)[nH]2)n1         log10 of IC50  2.26
3  Cc1ccc(CC(=O)Nc2cc(-c3ccccc3-c3nnn[nH]3)nc(N3CCN(Cc4ccccc4)C(=O)C3)c2)cc1 [Example 76, TFA]         log10 of IC50  3.00
4  CC(C)CN(Cc1ccccc1)c1cc(Nc2ccc(C(N)=O)cc2)cc(-c2ccccc2-c2nnn[nH]2)n1         log10 of IC50  2.82
5  CCN(Cc1ccccc1)c1cc(NC(=O)Nc2ccc(Cl)cc2F)cc(-c2ccccc2-c2nnn[nH]2)n1         log10 of IC50  1.42

In: Given Cc1ccc(CC(=O)Nc2cc(-c3cc(F)ccc3-c3nnn[nH]3)nc(N(Cc3ccccc3)CC(C)C)c2)cc1 [Example 89, TFA] , state its recorded log10 of IC50.
Out: 2.18

In: Given `CCCN(CC1CC1)c1nc(NC(=O)Nc2ccc(OC(F)(F)F)cc2)cc(-c2ccccc2-c2nnn[nH]2)n1` , state its recorded log10 of IC50.
Out: 3.39
